These entries and their values trace back to PubChem BioAssay (NCI).

System: SK-MEL-5 melanoma
Protocol Details: NCI tumour cell line growth inhibition, 48 h
Label yes for high-side TGI (at or above 3 µM) and no for low-side TGI (below it).

Compound | Class Name
O=C(CCl)Nc1cc(Cl)c(Cl)cc1Cl | yes
CN(NC1OC(CO)C(O)C(O)C1O)c1ccccc1 (stereo unspecified) | yes
COc1cccc(/C=N/[N-]C(N)=O)c1[O-].[Ni+2].[OH3+] | no
CCCCCCNC(=S)N/N=C(\C)c1ccccn1 | yes
Cc1cc2ccc(OC(=O)c3ccc(N=C(N)N)cc3)cc2oc1=O | yes
Cc1cc(C)c2c(=O)n(CC(O)CN3CCN(CCOCCO)CC3)sc2n1 (stereo unspecified) | yes

[ask] Given the entry COc1cc(C(C[N+](=O)[O-])SC(C)=O)ccc1OCc1ccccc1 (stereo unspecified) , answer whether its TGI meets or surpasses 3 µM.
[reply] yes

[ask] Given the entry Cc1cc(C)c2c(c1)CC1(Cc3ccc(C)c(C)c3C1=O)C2=O (stereo unspecified) , answer whether its TGI meets or surpasses 3 µM.
[reply] yes

[ask] Given the entry "O=C(Nc1cccc(-n2cc(-c3ccncc3)c(-c3ccc(O)c(Cl)c3)n2)c1)c1cc(C(F)(F)F)cc(C(F)(F)F)c1" , answer whether its TGI meets or surpasses 3 µM.
[reply] yes

[ask] Given the entry "Cc1cccc(/C=N\NC(=S)N2CCCCC2)n1" , answer whether its TGI meets or surpasses 3 µM.
[reply] no

* * *

Tested on: T-47D breast
Protocol Details: NCI tumour cell line growth inhibition, 48 h; in the data active = GI50 below about 0.43 µM; inactive = the rest
Lab note: assign the record to one of 1 (active), 0 (inactive)

Answered cases to consult:
Compound | Class Name
Nc1nnnc2nc[nH]c12 | 1
CCOc1ccc2c(c1)CN(Cc1ccc(Cl)cc1)CO2 | 0
O=c1c2ccccc2nc(-c2ccccc2Cl)n1-c1nnc(C(F)(F)F)s1 | 0
O=C(Nc1ccccc1C(F)(F)F)c1ccc(NC2=C(Cl)C(=O)N(Cc3ccccc3)C2=O)cc1 | 0
COc1cc(/C=C/C(=O)/C=C/c2cc3ccc(Cl)cc3n(Cc3ccccc3)c2=O)ccc1O | 0

[ask] Dear all, I need the recorded test outcome for "COc1ccc(Cl)cc1Nc1nc(C(F)(F)F)ccc1C(=O)N/N=C/c1cccnc1" , thank you.
[reply] 0

[ask] Dear all, I need the recorded test outcome for "C[C@@H](Nc1nc(Nc2ccc(F)c(Cl)c2)nc2c(C3=CCNCC3)cccc12)C1CC1" , thank you.
[reply] 0

[ask] Dear all, I need the recorded test outcome for "N#Cc1ccccc1C#C/C=C\C#Cc1ccccc1N" , thank you.
[reply] 0

[ask] Dear all, I need the recorded test outcome for "C/C(=N/O)c1ccc2c(c1)/C(=N/O)c1ccccc1-2" , thank you.
[reply] 0

[ask] Dear all, I need the recorded test outcome for "COc1ccc2nc3cc([N+](=O)[O-])ccc3c(NNc3ccccc3)c2c1" , thank you.
[reply] 0

* * *

Task for the reader: assign each of the following compounds its reported GI50.
System: MDA-MB-231 breast
Protocol Details: NCI tumour cell line growth inhibition, 48 h

// worked examples, GI50 included
Compound | GI50
COc1ccc2nc(-c3ccccc3)cc(Nc3cccc(C(C)=O)c3)c2c1 | 9650 nM
CC(c1ccccc1)[C@@H](C(=O)Nc1ccc(I)cc1F)N1C(=O)N[C@H](c2ccc(OC[C@H](O)CO)cc2)C1=O (some centres undefined) | 1560 nM
CCCCCCCCCCCCCCCCCCOc1ccccc1CC(=O)OCC[N+](CC)(CC)CC | 1050 nM

Next, consider the following compound.
[ask] Param item = "COc1cc(/C=C/C(=O)/C=C/c2cc3ccc(Cl)cc3n(Cc3ccccc3)c2=O)ccc1O" ; retrieve measured GI50.
[reply] 2930 nM
